// data source = paper PMC8762250

- System: HepG2 cells
- TEST_NAME: HepG2 cytotoxicity (CellTiter-Glo, 72 h)
- Format: cell-based, human
- PARTICULARS: human, 72 h
Marks after values point to notes of the source that are not given here.
MEASURED_QUANTITY: HepG2 cytotoxicity TC50 Galactose

Below, 3 compounds whose answers are already recorded.
O=C(COc1ccc(Cl)cc1)Nc1ccc(N2CCCCC2)c(Cl)c1 = >100 ^b µM
Cc1ccc(SCC(=O)Nc2ccc(Br)c(C)c2)cc1 = >100 ^b µM
COc1ccc(C(=O)c2sc(NCc3ccccc3)nc2N)cc1 = 24 ± 0.5 ^b µM

What HepG2 cytotoxicity TC50 Galactose value was documented for this compound, OCc1cn(-c2ccc(Cl)cc2)nc1-c1ccc(Cl)cc1 ?
31 ± 1.9 ^e µM

Ok, now O=C(CSc1ccc(Cl)cc1)Nc1ccc(F)c(Cl)c1
33 ± 4 ^b µM

Ok, now O=C(c1ccc(Cl)c(Cl)c1)N1CCN(c2ccc([N+](=O)[O-])c3cccnc23)CC1
>100 ^c µM

Ok, now CCc1ccc(OCC(=O)Nc2cccc3c2C(=O)OC3)cc1
47 ± 17 ^e µM

Ok, now Cc1ccc(Nc2nc(C(N)=O)c(N)s2)cc1
62 ± 6.2 ^c µM

Ok, now CCOC(=O)c1nnn(-c2nc(N3CCCC3)nc(N3CCCC3)n2)c1-c1ccccc1
>50 ^c µM

---

- Test system: HepG2 cells
- TEST_NAME: HepG2 cytotoxicity (CellTiter-Glo, 72 h)
- Assay type: cell-based, human
- PARTICULARS: human, 72 h
Marks after values point to notes of the source that are not given here.
Let's look at some compounds and their measured HepG2 cytotoxicity TC50 Glucose.

O=C(c1ccc(Cl)c(Cl)c1)N1CCN(c2ccc([N+](=O)[O-])c3cccnc23)CC1 [TPN-0095034] = >100 ^c µM
CCOC(=O)c1nnn(-c2nc(N3CCCC3)nc(N3CCCC3)n2)c1-c1ccccc1 [TPN-0095040] = >50 ^c µM
CC(C)c1ccc(OCC(=O)Nc2nccs2)cc1 [TPN-0006217] = 91 ± 3 ^b µM
O=C(CN(C1=NCCCS1)c1ccccc1)c1ccc(Cl)c(Cl)c1 [TPN-0095036] = 21 ± 3.4 ^c µM
Fc1ccc(C2CC(c3ccc(Cl)cc3Cl)n3ncnc3N2)cc1 (stereo not drawn) [TPN-0095039] = 29 ± 7.7 ^e µM
CCc1ccc(OCC(=O)Nc2cccc3c2C(=O)OC3)cc1 [TPN-0006204] = 59 ± 10 ^d µM
Cc1cc(C)nc(NC(=N)Nc2ccc(Br)cc2)n1 [TPN-0073061] = 22 ± 4.0 ^c µM
CCOc1ccc(NC(=S)Nc2ccc(C)c(C#N)c2)cc1 [TPN-0073063] = 40 ± 11 ^e µM

// below: HepG2 cytotoxicity TC50 Glucose requested for another compound
What HepG2 cytotoxicity TC50 Glucose value was documented for this compound, CCc1ccccc1NC(=O)c1c(NC(=O)c2cccc(Cl)c2)sc2c1CCC2 [TPN-0073585] ?
>25 ^c µM

---

- Test system: RAW264.7 cells
- TEST_NAME: Macrophage viability in the same high content assay
- PARTICULARS: infected RAW264.7 macrophages; SAR tables 4-8
Marks after values point to notes of the source that are not given here.
Let's look at some compounds and their measured Intracellular RAW TC50.

Below, 4 compounds whose answers are already recorded.
Cc1ccc(OCC(=O)Nc2ccc(N3CCCCC3)c(Cl)c2)cc1 [TPN-0006206] = 57 ± 20 ^c µM
CCOc1ccc(NC(=S)Nc2ccccc2)cc1 [TPN-0073062] = >100 ^d µM
COc1ccc(OCC(=O)Nc2sc3c(c2C(=O)NC2CCS(=O)(=O)C2)CCCC3)cc1 (centres unmarked) [TPN-0073584] = >100 ^c µM
Nc1c(C(=O)c2ccc(F)cc2)sc2nc(-c3ccccc3)cc(-c3ccccc3)c12 [TPN-0073026] = >100 ^a µM

// below: Intracellular RAW TC50 requested for another compound
Hi! What's the reported Intracellular RAW TC50 for Nc1c(C(=O)Nc2nccs2)sc2nc3c(cc12)CCC3 [TPN-0073030] on RAW264.7 cells?
>100 ^c µM

---

Let's look at some molecules and their measured Intracellular activity Cytotoxicity TC50.
- System: RAW264.7 cells
- TEST_NAME: Macrophage viability in the same high content assay
- PARTICULARS: infected RAW264.7 macrophages, 72 h
Marks after values point to notes of the source that are not given here.

Below, 3 molecules whose answers are already recorded.
Nc1c(C(=O)N2CCCC2)sc2nc(-c3ccccc3)ccc12 [TPN-0073027] = >100e µM
Brc1c(-c2ccccc2)nc2ccccn12 [TPN-0095038] = 72 ± 15 ^b µM
Cc1ccc(SCC(=O)Nc2ccc(Br)c(C)c2)cc1 [TPN-0006207] = >100 ^b µM

What Intracellular activity Cytotoxicity TC50 value was documented for this molecule, O=C(CN(C1=NCCCS1)c1ccccc1)c1ccc(Cl)c(Cl)c1 [TPN-0095036] ?
27 ± 2.8 ^c µM

Ok, now Cc1c(Cc2ccccc2)sc(NC(=O)c2ccccc2Cl)c1C(N)=O [TPN-0073560]
23 ± 4.7 ^d µM

---

- System: RAW264.7 cells
- TEST_NAME: Macrophage viability in the same high content assay
- PARTICULARS: infected RAW264.7 macrophages; SAR tables 4-8
Marks after values point to notes of the source that are not given here.
Let's look at some compounds and their measured Intracellular RAW TC50.

Below, 4 compounds whose answers are already recorded.
Nc1c(C(=O)N2CCCCC2)sc2nc3c(cc12)CCCC3 [TPN-0073024] = >100 ^b µM
Cc1ccc(OCC(=O)N2CCCc3ccccc32)cc1 [TPN-0006208] = 86 ± 1.0 ^b µM
O=C(CSc1ccc(Cl)cc1)Nc1ccc(F)c(Cl)c1 [TPN-0006216] = >100 ^b µM
O=C(Nc1ccc(Cl)cc1)Nc1ccc(Nc2ccccc2)cc1 [TPN-0073077] = 68 ± 23 ^b µM

What Intracellular RAW TC50 value was documented for this compound, O=C(COc1ccccc1)NC12CC3CC(CC(C3)C1)C2 [TPN-0006211] ?
38 ± 6.0 ^b µM

---

- Test system: HepG2 cells
- TEST_NAME: HepG2 cytotoxicity (CellTiter-Glo, 72 h)
- Format: cell-based, human
- PARTICULARS: human, 72 h
Marks after values point to notes of the source that are not given here.
MEASURED_QUANTITY: HepG2 cytotoxicity TC50 Glucose

What HepG2 cytotoxicity TC50 Glucose value was documented for this compound, OCc1cn(-c2ccc(Cl)cc2)nc1-c1ccc(Cl)cc1 ?
31 ± 2.1 ^c µM

---

- Tested on: RAW264.7 cells
- TEST_NAME: Macrophage viability in the same high content assay
- PARTICULARS: macrophage TC50 / intracellular IC50
MEASURED_QUANTITY: selectivity index (TC50/IC50)

Below, 2 molecules whose answers are already recorded.
CCOc1ccc(NC(=S)Nc2ccccc2)cc1 = > 250
O=C(CSc1ccc(Cl)cc1)Nc1ccc(F)c(Cl)c1 = > 42

// below: selectivity index (TC50/IC50) requested for another molecule
What selectivity index (TC50/IC50) value was documented for this molecule, CCOc1ccc(NC(=S)Nc2ccc(C)c(C#N)c2)cc1 ?
> 150

---

Let's look at some molecules and their measured IC50 at 72 h.
- TEST_NAME: HepG2 cytotoxicity (CellTiter-Glo, 72 h)
- Format: cell-based, human
- PARTICULARS: human, HepG2 cytotoxicity IC50 Glucose

Cc1ccc(SCC(=O)Nc2ccc(Br)c(C)c2)cc1 = > 100 µM
CCc1ccccc1NC(=O)c1c(NC(=O)c2cccc(Cl)c2)sc2c1CCC2 = > 25 µM
O=C(COc1ccc(Cl)cc1)Nc1ccc(N2CCCCC2)c(Cl)c1 = > 100 µM
O=C(CSc1ccccn1)Nc1ccc(F)c(F)c1 = > 100 µM
Cc1ccc(OCC(=O)N2CCCc3ccccc32)cc1 = > 100 µM
O=C(CSc1ccccc1)Nc1ccc(Br)cc1 = > 100 µM
O=C(Nc1ccc(Cl)cc1)Nc1ccc(Nc2ccccc2)cc1 = > 100 µM
Cc1ccc(OCC(=O)Nc2ccc(N3CCCCC3)c(Cl)c2)cc1 = > 100 µM
COc1c(Cl)ccc(Cl)c1C(=O)Nc1sc2c(c1C(N)=O)CCCC2 = > 100 µM
O=C(COc1ccc2ccccc2c1)Nc1ccncc1 = > 100 µM

What IC50 at 72 h value was documented for this molecule, CC(C)c1ccc(OCC(=O)Nc2nccs2)cc1 ?
91 µM

Ok, now COCc1cc(C)nc2sc(C(=O)Nc3cccc(Cl)c3)c(N)c12
51 µM

Ok, now Cc1c(Cc2ccccc2)sc(NC(=O)c2ccccc2Cl)c1C(N)=O
> 100 µM

Ok, now Nc1c(C(=O)Nc2nccs2)sc2nc3c(cc12)CCC3
> 100 µM

Ok, now COc1ccc(OCC(=O)Nc2sc3c(c2C(=O)NC2CCS(=O)(=O)C2)CCCC3)cc1 (stereo not shown)
> 100 µM

Ok, now Nc1c(C(=O)c2ccc(F)cc2)sc2nc(-c3ccccc3)cc(-c3ccccc3)c12
> 100 µM

Ok, now Nc1c(C(=O)N2CCCCC2)sc2nc3c(cc12)CCCC3
> 100 µM

Ok, now COC(=O)c1c(NC(NC(=O)c2cccs2)C(=O)c2ccccc2)sc(C(C)=O)c1C (stereo not shown)
93 µM

Ok, now CCOc1ccc(NC(=S)Nc2ccccc2)cc1
> 100 µM

Ok, now Nc1c(C(=O)N2CCCC2)sc2nc(-c3ccccc3)ccc12
72 µM

Ok, now O=C(COc1ccccc1)NC12CC3CC(CC(C3)C1)C2
53 µM

Ok, now Cc1cc(C)nc(NC(=N)Nc2ccc(Br)cc2)n1
212 µM
